Format: in vitro ADME
Conditions: pooled human serum, 37 °C; activity in precipitated serum protein pellet
quantity.kind: protein‐associated activity (protein‐bound activity fraction)

INSERT INTO assay_data (compound, reading) VALUES
  ('C[C@@H](O)[C@H](NC(=O)[C@@H]1CSSC[C@H](NC(=O)[C@@H](Cc2ccccc2)NC(=O)CCC(C(=O)O)N2CCN3CCN(CCN(CC(=O)O)CC3)CC2)C(=O)N[C@@H](Cc2ccc(O)cc2)C(=O)N[C@H](Cc2c[nH]c3ccccc23)C(=O)N[C@@H](CCCCN)C(=O)N[C@@H]([C@@H](C)O)C(=O)N1)C(=O)O (stereo partly shown) [[^68Ga]Ga‐11, metal not drawn]', '15.7±3.6%'),
  ('C[C@@H](O)[C@H](NC(=O)[C@@H]1CSSC[C@H](NC(=O)[C@@H](Cc2ccccc2)NC(=O)CC[C@H](C(=O)O)N2CCN(CC(=O)O)CCN(CC(=O)O)CC2)C(=O)N[C@@H](Cc2ccc(O)cc2)C(=O)N[C@H](Cc2c[nH]c3ccccc23)C(=O)N[C@@H](CCCCN)C(=O)N[C@@H]([C@@H](C)O)C(=O)N1)C(=O)O [[^68Ga]Ga‐10, metal not drawn]', '16.9±3.5%'),
  ('C[C@@H](O)[C@H](NC(=O)[C@@H]1CSSC[C@H](NC(=O)[C@@H](Cc2ccccc2)NC(=O)CCC(C(=O)O)N2CCN(CC(=O)O)CCN(CC(=O)O)CCN(CC(=O)O)CC2)C(=O)N[C@@H](Cc2ccc(O)cc2)C(=O)N[C@H](Cc2c[nH]c3ccccc23)C(=O)N[C@@H](CCCCN)C(=O)N[C@@H]([C@@H](C)O)C(=O)N1)C(=O)O (stereo partly shown) [[^68Ga]Ga‐9, metal not drawn]', '29.0±3.5%'),
  ('C[C@@H](O)[C@H](NC(=O)[C@@H]1CSSC[C@H](NC(=O)[C@@H](Cc2ccccc2)NC(=O)CN2CCN(CC(=O)O)CCN(CC(=O)O)CCN(CC(=O)O)CC2)C(=O)N[C@@H](Cc2ccc(O)cc2)C(=O)N[C@H](Cc2c[nH]c3ccccc23)C(=O)N[C@@H](CCCCN)C(=O)N[C@@H]([C@@H](C)O)C(=O)N1)C(=O)O [[^68Ga]Ga‐8, metal not drawn]', '19.7±2.2%');

The values you see were collected from paper PMC10100262.
